Biological target: T1, human PD-L1 ECD-His (human, UniProt Q9NZQ7 19-238)
T1 construct: extracellular domain; Analyte in all SPR and BLI runs; also called hPD-L1_ECD-His; hPD-L1 ECD-His; not shown: His tag
T1 sequence (Q9NZQ7 19-238): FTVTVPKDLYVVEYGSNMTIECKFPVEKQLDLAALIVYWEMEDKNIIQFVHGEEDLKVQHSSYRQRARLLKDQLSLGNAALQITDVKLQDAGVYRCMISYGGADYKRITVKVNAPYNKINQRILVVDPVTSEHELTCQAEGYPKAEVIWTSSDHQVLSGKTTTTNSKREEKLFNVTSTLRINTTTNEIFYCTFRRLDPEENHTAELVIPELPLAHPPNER
Experiment: SPR, ratio of KD to ref-1
REPORTED METRIC: Improvement over ref-1 (fold)
Express it in fold; write the number only.

| BINDER | REPORTED METRIC | VALUE UNIT | RESULT VALUE |
| --- | --- | --- | --- |
| PL2#3 IgG1 (antibody, V domains shown, Human IgG1) VH: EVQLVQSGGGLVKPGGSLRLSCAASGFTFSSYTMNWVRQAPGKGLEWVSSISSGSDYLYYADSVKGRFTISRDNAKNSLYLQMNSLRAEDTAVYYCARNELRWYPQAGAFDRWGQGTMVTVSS VL: QSVVTQPPSMSAAPGQRVTISCSGSSSYIESSYVGWYQQLPGTAPRLLIYDDDMRPSGIPDRFSGSKSGTSATLAITGLQTGDEADYYCEIWRSGLGGVFGGGTKLTVL | Improvement over ref-1 | fold | 2.53 |

Challenge: Quote Improvement over ref-1 reported for PL2 IgG1 (antibody, V domains shown) VH: EVQLVQSGGGLVKPGGSLRLSCAASGFTFSSYTMNWVRQAPGKGLEWVSSISSGSDYLYYADSVKGRFTISRDNAKNSLYLQMNSLRAEDTAVYYCARNELRWYPQAGAFDIWGQGTMVTVSS VL: QSVVTQPPSMSAAPGQNVTISCSGSSSYIESSYVSWYQQLPGTAPRLLIYDDDMRPSGIPDRFSGSKSGTSATLAITGLQTGDEADYYCEIWDSGLGGVFGGGTKLTVL please.
Response given: 0.41

Challenge: Please supply the value of reported Improvement over ref-1 for the item PL2#3 IgG2 (antibody, V domains shown, Human IgG2 backbone) VH: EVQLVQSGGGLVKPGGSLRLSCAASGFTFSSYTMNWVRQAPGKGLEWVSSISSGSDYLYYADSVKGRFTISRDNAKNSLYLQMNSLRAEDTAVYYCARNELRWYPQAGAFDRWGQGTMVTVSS VL: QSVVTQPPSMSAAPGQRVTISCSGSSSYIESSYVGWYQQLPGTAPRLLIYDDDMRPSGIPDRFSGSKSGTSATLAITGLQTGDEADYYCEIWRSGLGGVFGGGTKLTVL
Response given: 5.36
